ASSAY METHOD TEXT: chemical genetic growth profiling, strain panel (AID 1159580);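 also: tested at 20 µM; growth read once vehicle control cultures reached saturation at 30 °C; lower values mean less growth of the strain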
COND: S. cerevisiae deletion strains, growth OD, locus YDL028C, strain MPS1
Out of some 5,500 compounds screened, about 2,000 (36%) were called active. Roughly 18% stayed inconclusive and do not appear here. Rule as the data show it: active = normalized growth mostly below about 0.91 (no sharp cut-off); inconclusive = no clear call, values can overlap the other calls; inactive = mostly above about 0.92. Some of the results follow.
Answer with one of the outcomes given here: active, inactive

S=C(Nc1ccc(Cl)cc1)Nc1ccc(Cl)cc1: inactive
S=C(N/N=C\c1cccs1)NC1CC2CCC1C2 (stereo not given): inactive
Cc1ccc2nc(-c3ccc([N+](=O)[O-])o3)oc(=O)c2c1: active
COc1cc(N2C(=O)C=CC2=O)cc(OC)c1OC: inactive

Per the records of this test, what outcome belongs to CN1c2ccccc2C(C)(C)C12C=Cc1cc(O)ccc1O2 (stereo not given) ?
inactive
